Test: Human HepG2 cell viability assay in 384 well format
Type: toxicity, cell-based
Parameters: dose 125 nL, time 70.5 hour; concentration not given beside the values
Conditions: HepG2 cells, read-out: Inhibition
Observable: cytotoxicity at 70.5 h (%)
Reply with just the number (in %).

Consider the worked cases shown below.
Compound: Cc1ccc(Nc2nccc(C3CCCN(CC(=O)N(C)C)C3)n2)nc1 (stereo unspecified)
Measured Number: -16.1

Compound: Cc1ncsc1C(=O)N1CCCN(Cc2cscn2)CC1
Measured Number: -12.1

Given the entry `Cc1csc2ncc(-c3ccnc(N4CCCC[C@@H]4CO)n3)c(=O)n12` , report its measured cytotoxicity at 70.5 h.
20.9

Try this compound next: O=C(Cc1ccccn1)NCC1OCCc2cn(CC3CC3)nc21 (stereo unspecified)
11.2

Try this compound next: `COc1cccc(Cn2cc(N3C(=O)CCC3=O)cn2)c1`
3.42

Try this compound next: `O=C(c1cc(F)cc(F)c1)N1C[C@H]2CNC[C@H]2C1`
-13.4

Try this compound next: `Cc1noc(CNc2cc3c(cc2Cl)OCCCO3)n1`
-14.8

Try this compound next: `CO[C@@H]1CC[C@H]2[C@H]1OCCN2C(=O)c1ccco1`
-1.75

====

Here the recorded cytotoxicity at 70.5 h is given for each entry.
Test: Human HepG2 cell viability assay in 384 well format
Assay type: toxicity, cell-based
Set-up: dose 125 nL, time 70.5 hour; concentration not given beside the values
Settings: HepG2 cells, read-out: Inhibition
Reply with just the number (in %).

Given the entry `CN1C(=O)COc2cc(NC(=O)CCc3nc4cccnc4[nH]3)ccc21` , report its measured cytotoxicity at 70.5 h.
-11.3

Try this molecule next: `Cc1ncccc1NC(=O)[C@H]1C[C@@H]2CCN(Cc3nccs3)C[C@@H]2O1`
-2.41

Try this molecule next: COc1ccc(C2CCCN2S(=O)(=O)N(C)CC(C)C)cc1 (stereo not drawn)
-1.91

Try this molecule next: `CN(C)CCN(C)C[C@@H]1CN(Cc2cccc(O)c2)C[C@@H]1CO`
-3.65

Try this molecule next: `CC(=O)Nc1cc(-c2cccc(F)c2F)n[nH]1`
-5.76

Try this molecule next: `O=C(C[C@H]1[C@H]2CN(C(=O)c3cccnc3)C[C@@H]12)Nc1cccnc1`
-1.44

====

Here the recorded cytotoxicity at 70.5 h is given for each entry.
Assay: Human HepG2 cell viability assay in 384 well format
Assay type: toxicity, cell-based
Set-up: dose 125 nL, time 70.5 hour; concentration not given beside the values
Conditions: HepG2 cells, read-out: Inhibition
Reply with just the number (in %).

Consider the worked cases shown below.
Molecule: Fc1cccc(Cc2cncc(C3CCCN3C3CCOCC3)n2)c1 (stereo not drawn)
cytotoxicity at 70.5 h / %: -5.65
//
Molecule: CCS(=O)(=O)NCc1nc(C)cc(N2CCCCC2)n1
cytotoxicity at 70.5 h / %: -7.45
//
Molecule: CC(C)C(NCc1ccc(Cn2cncn2)cc1)c1ccccc1 (stereo not drawn)
cytotoxicity at 70.5 h / %: -3.88
//
Molecule: Cn1cccc1C(=O)N1CCc2ncnc(N3CCOCC3)c2CC1
cytotoxicity at 70.5 h / %: -9.14
//
Molecule: CN1CCCC(Cc2cc(N(C)C)ncn2)C1 (stereo not drawn)
cytotoxicity at 70.5 h / %: -5.24
//
Molecule: CN(Cc1cnn(C)c1)Cc1nc(Cc2cccc(Cl)c2)no1
cytotoxicity at 70.5 h / %: -7.96
//
Molecule: CC(NC(=O)Cc1cccs1)c1nnc2n1CCCCC2 (stereo not drawn)
cytotoxicity at 70.5 h / %: -23.9
//
Molecule: Cc1cnn(C2CN(CCOc3ccc(C#N)cc3)C2)c1
cytotoxicity at 70.5 h / %: -5.99

Given the entry `O=C1[C@@H]2CN(c3ncnc4[nH]ccc34)C[C@]2(C(=O)O)CN1CC1CC1` , report its measured cytotoxicity at 70.5 h.
-9.8

Try this molecule next: `CS(=O)(=O)C1(CNCc2cccc(-n3cccn3)c2)CCOCC1`
12.5

Try this molecule next: `Cc1cc2c(=O)n3c(nc2s1)CCN(C(=O)c1ccncc1)CC3`
-20

====

Test: Human HepG2 cell viability assay in 384 well format
Type: toxicity, cell-based
Design: dose 125 nL, time 70.5 hour; concentration not given beside the values
Details: HepG2 cells, read-out: Inhibition
Here the recorded cytotoxicity at 70.5 h is given for each entry.
Reply with just the number (in %).

Consider the worked cases shown below.
Compound: COc1cccc([C@H]2CN(C(=O)c3scc4c3CCCC4)C[C@@H]2N)c1
Unit Symbol: %
cytotoxicity at 70.5 h: -12
--
Compound: C1CN(c2nc3c(c(NC4CC4)n2)CN(CC2CCOC2)CC3)CCO1 (stereo unspecified)
Unit Symbol: %
cytotoxicity at 70.5 h: -9.83
--
Compound: O=C(O)C1CN(Cc2cnc(C3CCCCC3)nc2)CCO1 (stereo unspecified)
Unit Symbol: %
cytotoxicity at 70.5 h: 17.1
--
Compound: COC(=O)CNC(=O)c1cn(-c2ccccn2)c(=O)c2ccccc12
Unit Symbol: %
cytotoxicity at 70.5 h: -9.1
--
Compound: O=C(c1nc(=O)[nH][nH]1)N1CCCCCC1
Unit Symbol: %
cytotoxicity at 70.5 h: -1.45

Next item in the queue.
Given the entry `O=C(Cc1ccc(F)cc1)N1C[C@H]2CCN[C@H]2C1` , report its measured cytotoxicity at 70.5 h.
-5

====

Here the recorded cytotoxicity at 70.5 h is given for each entry.
Test: Human HepG2 cell viability assay in 384 well format
Format: toxicity, cell-based
Design: dose 125 nL, time 70.5 hour; concentration not given beside the values
Conditions: HepG2 cells, read-out: Inhibition
Reply with just the number (in %).

Consider the worked cases shown below.
Molecule: CCC1CCC(NCCN2CCOCC2)CC1 (centres undefined)
Observable: cytotoxicity at 70.5 h
Unit Symbol: %
Measured Number: -6.57
//
Molecule: Cc1nc(Nc2cnccn2)cc(C2CN(C(C)C)C2)n1
Observable: cytotoxicity at 70.5 h
Unit Symbol: %
Measured Number: -6.87
//
Molecule: O=C1CN(C(=O)c2nnn(-c3ccc(C(F)(F)F)cc3)n2)CCN1
Observable: cytotoxicity at 70.5 h
Unit Symbol: %
Measured Number: -14.4
//
Molecule: CCN(CC)C(=O)c1nnsc1-c1ccc(Cl)cc1
Observable: cytotoxicity at 70.5 h
Unit Symbol: %
Measured Number: -17.2
//
Molecule: CCN(CC(C)C#N)C(=O)c1cccc(COc2ccc(C)nc2)c1 (centres undefined)
Observable: cytotoxicity at 70.5 h
Unit Symbol: %
Measured Number: -4.47
//
Molecule: CCOCCCNC(=O)Cc1cccs1
Observable: cytotoxicity at 70.5 h
Unit Symbol: %
Measured Number: -1.71
//
Molecule: CCNS(=O)(=O)C1CCN(C(=O)c2c(F)cc(F)cc2F)C1 (centres undefined)
Observable: cytotoxicity at 70.5 h
Unit Symbol: %
Measured Number: -2.04
//
Molecule: CC(C)(C)CC(=O)NCC(=O)NS(=O)(=O)c1cccnc1
Observable: cytotoxicity at 70.5 h
Unit Symbol: %
Measured Number: 2.71

Given the entry `CN(C)c1cccc(C2CCN(c3ncccn3)CC2)n1` , report its measured cytotoxicity at 70.5 h.
-3.49

Try this molecule next: `N#Cc1ncn(CCC(=O)Nc2cc(Cl)ccc2Cl)n1`
-4.2

Try this molecule next: `CN1CCC(c2cccc(NCc3ccncc3)n2)CC1`
-2.85

Try this molecule next: `COCCN1CCN(Cc2c(C)noc2C)Cc2cccnc21`
-4.72

Try this molecule next: `Cc1cccc(CC(=O)NCCCOC(C)C)c1`
-10.5

Try this molecule next: `CC(C)(C)c1coc([C@@H]2COCCN2Cc2ncc[nH]2)n1`
-0.512

Try this molecule next: Cn1ncc2c(=O)[nH]c(CN3CCCC3CCc3ccccc3)nc21 (centres undefined)
-1.66

Try this molecule next: `CC(C)n1cnnc1CN(C)Cc1cnc(-c2ccccn2)nc1`
-5.94

Try this molecule next: Cc1c(-c2ccccc2)ncn1CC(c1cccnc1)N1CCOCC1 (centres undefined)
-2.03

Try this molecule next: `O=C(NC1CC1)c1nc(Cn2c(C(F)F)nc3ccccc32)no1`
-7.88

Try this molecule next: NC(=O)c1csc(N2CCN(C3CCc4ccccc4C3)CC2)n1 (centres undefined)
-14.7

Try this molecule next: `O=S(=O)(C1CC1)N1CCc2ncnc(N3CCCC3)c2CC1`
-14.9

Try this molecule next: O=C1CC(NCc2ccccn2)CN1CCc1ccc(F)cc1 (centres undefined)
20.5

====

Test: Human HepG2 cell viability assay in 384 well format
Type: toxicity, cell-based
Design: dose 125 nL, time 70.5 hour; concentration not given beside the values
Details: HepG2 cells, read-out: Inhibition
Here the recorded cytotoxicity at 70.5 h is given for each entry.
Reply with just the number (in %).

Consider the worked cases shown below.
Compound: CC(C)c1nc(O)c2nnn(C[C@@H]3CCCN(Cc4ccsc4)C3)c2n1
Unit Symbol: %
Measured Number: -2.22

Compound: Cc1nc(CN(C)CC2CCCN2c2cccnn2)oc1C (centres undefined)
Unit Symbol: %
Measured Number: -1.57

Compound: CC(C)N(C)Cc1ncn2c1CN(S(=O)(=O)c1cccs1)CCC2
Unit Symbol: %
Measured Number: 13

Compound: COc1ccc(CN2C[C@H](OCC3CCOCC3)[C@H]3COC[C@H]32)cc1
Unit Symbol: %
Measured Number: -9.69

Given the entry NC[C@H]1CC[C@H](C(NC(=O)c2cccc(F)c2)c2ccccn2)CC1 (some centres undefined) , report its measured cytotoxicity at 70.5 h.
41

Try this compound next: CCC(Nc1ccc(Oc2ccc(C#N)cc2OC)cc1)C(N)=O (centres undefined)
5.26

Try this compound next: `COc1ccc(OCCN(C)S(=O)(=O)c2cnn(C)c2)cc1`
-6.09

Try this compound next: `c1ccc(OCc2nnn3c2CN(c2ncccn2)CCC3)nc1`
6.14
